Where these numbers come from: patent US5840684A

MIC values by entry
System: Streptococcus pyogenes C203
Assay: broth micro-dilution MIC
Format: cell-based

Example results:
compound | MIC
C=CCCCCNC1(C)CC(OC2C(Oc3c4cc5cc3Oc3ccc(cc3Cl)C(OC3CC(C)(N)C(O)C(C)O3)C3NC(=O)C(NC(=O)C5NC(=O)C(CC(N)=O)NC(=O)C(NC(=O)C(CC(C)C)NC)C(O)c5ccc(c(Cl)c5)O4)c4ccc(O)c(c4)-c4c(O)cc(O)cc4C(C(=O)O)NC3=O)OC(CO)C(O)C2O)OC(C)C1O (centres unmarked) | ≤ 0.06 mg/L
CNC(CC(C)C)C(=O)NC1C(=O)NC(CC(N)=O)C(=O)NC2C(=O)NC3C(=O)NC(C(=O)NC(C(=O)O)c4cc(O)cc(O)c4-c4cc3ccc4O)C(OC3CC(C)(N)C(O)C(C)O3)c3ccc(c(Cl)c3)Oc3cc2cc(c3OC2OC(CO)C(O)C(O)C2OC2CC(C)(NCc3ccc(-c4cccs4)cc3)C(O)C(C)O2)Oc2ccc(cc2Cl)C1O (centres unmarked) | ≤ 0.06 mg/L
CN[C@H](CC(C)C)C(=O)N[C@H]1C(=O)N[C@@H](CC(N)=O)C(=O)N[C@H]2C(=O)N[C@H]3C(=O)N[C@H](C(=O)N[C@H](C(=O)O)c4cc(O)cc(O)c4-c4cc3ccc4O)[C@H](O[C@H]3C[C@](C)(N)[C@@H](O)[C@H](C)O3)c3ccc(c(Cl)c3)Oc3cc2cc(c3O[C@@H]2O[C@H](CO)[C@@H](O)[C@H](O)[C@H]2O[C@H]2C[C@](C)(NCc3cccc(-c4ccccc4)c3)[C@@H](O)[C@H](C)O2)Oc2ccc(cc2Cl)[C@H]1O | ≤ 0.06 mg/L

Return reported MIC; argument: CNC(CC(C)C)C(=O)NC1C(=O)NC(CC(N)=O)C(=O)NC2C(=O)NC3C(=O)NC(C(=O)NC(C(=O)O)c4cc(O)cc(O)c4-c4cc3ccc4O)C(OC3CC(C)(N)C(O)C(C)O3)c3ccc(c(Cl)c3)Oc3cc2cc(c3OC2OC(CO)C(O)C(O)C2OC2CC(C)(NCC3CCCCC3)C(O)C(C)O2)Oc2ccc(cc2Cl)C1O (centres unmarked)
≤ 0.06 mg/L

// query: CNC(CC(C)C)C(=O)NC1C(=O)NC(CC(N)=O)C(=O)NC2C(=O)NC3C(=O)NC(C(=O)NC(C(=O)O)c4cc(O)cc(O)c4-c4cc3ccc4O)C(OC3CC(C)(N)C(O)C(C)O3)c3ccc(c(Cl)c3)Oc3cc2cc(c3OC2OC(CO)C(O)C(O)C2OC2CC(C)(NCc3ccc(-c4ccc(Br)cc4)cc3)C(O)C(C)O2)Oc2ccc(cc2Cl)C1O (centres unmarked)
≤ 0.06 mg/L

Now the compound CC(C)CC(C(=O)NC1C(=O)NC(CC(N)=O)C(=O)NC2C(=O)NC3C(=O)NC(C(=O)NC(C(=O)O)c4cc(O)cc(O)c4-c4cc3ccc4O)C(OC3CC(C)(N)C(O)C(C)O3)c3ccc(c(Cl)c3)Oc3cc2cc(c3OC2OC(CO)C(O)C(O)C2OC2CC(C)(NCc3cc4ccccc4s3)C(O)C(C)O2)Oc2ccc(cc2Cl)C1O)N(C)Cc1cc2ccccc2s1 (centres unmarked)
≤ 0.06 mg/L

Another compound to check: CNC(CC(C)C)C(=O)NC1C(=O)NC(CC(N)=O)C(=O)NC2C(=O)NC3C(=O)NC(C(=O)NC(C(=O)O)c4cc(O)cc(O)c4-c4cc3ccc4O)C(OC3CC(C)(N)C(O)C(C)O3)c3ccc(c(Cl)c3)Oc3cc2cc(c3OC2OC(CO)C(O)C(O)C2OC2CC(C)(NCCCC3CCCC3)C(O)C(C)O2)Oc2ccc(cc2Cl)C1O (centres unmarked)
≤ 0.06 mg/L

And the next one, CNC(CC(C)C)C(=O)NC1C(=O)NC(CC(N)=O)C(=O)NC2C(=O)NC3C(=O)NC(C(=O)NC(C(=O)O)c4cc(O)cc(O)c4-c4cc3ccc4O)C(OC3CC(C)(N)C(O)C(C)O3)c3ccc(c(Cl)c3)Oc3cc2cc(c3OC2OC(CO)C(O)C(O)C2OC2CC(C)(NCc3c(C)c(C)c(C)c(C)c3C)C(O)C(C)O2)Oc2ccc(cc2Cl)C1O (centres unmarked) ?
≤ 0.06 mg/L
